Hello, the source for this data is patent US9695155B2, in case you need it.

Readings of pest or weed control at 62 g/ha for the listed compounds
- Test system: blackgrass
- EXPERIMENTAL DETAILS: Test C postemergence
- Type: in vivo, Alopecurus myosuroides
- DETAILS: Alopecurus myosuroides, post-emergence; Postemergence, 62 g ai/ha; scale 0 to 100 (0 no effect, 100 complete control); read-out: Plant response rating, Blackgrass
Only the number, expressed in %, is required.

input: For the record Fc1cccc(Oc2ncc(Cl)cn2)c1-n1cc(C(F)F)nn1 , what value of pest or weed control at 62 g/ha is listed for blackgrass?
output: 35

input: Which pest or weed control at 62 g/ha is reported with blackgrass for this entry: N#Cc1cccc(Oc2ncc(Cl)cn2)c1-n1cc(SC(F)(F)F)cn1 ?
output: 5

input: # value lookup — system blackgrass, readout pest or weed control at 62 g/ha, item Clc1cnn(-c2ccccc2Oc2ncc(Br)cn2)c1
output: 5

input: Give blackgrass pest or weed control at 62 g/ha for FC(F)c1cnn(-c2ccccc2Oc2ncc(Cl)cn2)c1
output: 10
